- assay-target: p110α (PI3Kα) (Homo sapiens)
- protocol-text: LanthaScreen determination of kinetic constants (kinact, Ki) for p110α
- Type: binding
- test-settings: mean of 3 independent measurements; global fitting with KinTek; read-out: kinact PI3Kα
reported-property: log10 kinact (log10 of the value in s⁻¹)
In plain terms, each number is the log10 of measured kinact in s⁻¹.

Some solved cases for reference:
- chem-smiles: "N#C/C(=C/C1CC1)C(=O)N1CC[C@H](COCC(=O)N2CCN(c3nc(-c4cnc(N)nc4C(F)F)nc(N4CCOCC4)n3)CC2)C1"
  log10 kinact: -1.98
- chem-smiles: "C=CC(=O)N1CC[C@H](C(=O)N(C)CC(=O)N2CCN(c3nc(-c4cnc(N)nc4C(F)F)nc(N4CCOCC4)n3)CC2)C1"
  log10 kinact: -3.10

Query :: Which log10 kinact reading was recorded for the compound `C=CC(=O)N1CCCC[C@@H]1C(=O)N(C)CC(=O)N1CCN(c2nc(-c3cnc(N)nc3C(F)F)nc(N3CCOCC3)n2)CC1` ?
Result :: -3.64

Query :: Which log10 kinact reading was recorded for the compound `C[C@H]1COCCN1c1nc(-c2cnc(N)nc2C(F)F)nc(N2CCN(C(=O)COC[C@H]3CN(C(=O)/C(C#N)=C\C4CC4)CCO3)CC2)n1` ?
Result :: -1.92

Query :: Which log10 kinact reading was recorded for the compound `C=CC(=O)N1CCC[C@H](C(=O)N(C)CC(=O)N2CCN(c3nc(-c4cnc(N)nc4C(F)F)nc(N4CCOCC4)n3)CC2)C1` ?
Result :: -3.60

###

- assay-target: p110α (PI3Kα) (Homo sapiens, UniProt P42336)
- Sequence (P42336 whole entry): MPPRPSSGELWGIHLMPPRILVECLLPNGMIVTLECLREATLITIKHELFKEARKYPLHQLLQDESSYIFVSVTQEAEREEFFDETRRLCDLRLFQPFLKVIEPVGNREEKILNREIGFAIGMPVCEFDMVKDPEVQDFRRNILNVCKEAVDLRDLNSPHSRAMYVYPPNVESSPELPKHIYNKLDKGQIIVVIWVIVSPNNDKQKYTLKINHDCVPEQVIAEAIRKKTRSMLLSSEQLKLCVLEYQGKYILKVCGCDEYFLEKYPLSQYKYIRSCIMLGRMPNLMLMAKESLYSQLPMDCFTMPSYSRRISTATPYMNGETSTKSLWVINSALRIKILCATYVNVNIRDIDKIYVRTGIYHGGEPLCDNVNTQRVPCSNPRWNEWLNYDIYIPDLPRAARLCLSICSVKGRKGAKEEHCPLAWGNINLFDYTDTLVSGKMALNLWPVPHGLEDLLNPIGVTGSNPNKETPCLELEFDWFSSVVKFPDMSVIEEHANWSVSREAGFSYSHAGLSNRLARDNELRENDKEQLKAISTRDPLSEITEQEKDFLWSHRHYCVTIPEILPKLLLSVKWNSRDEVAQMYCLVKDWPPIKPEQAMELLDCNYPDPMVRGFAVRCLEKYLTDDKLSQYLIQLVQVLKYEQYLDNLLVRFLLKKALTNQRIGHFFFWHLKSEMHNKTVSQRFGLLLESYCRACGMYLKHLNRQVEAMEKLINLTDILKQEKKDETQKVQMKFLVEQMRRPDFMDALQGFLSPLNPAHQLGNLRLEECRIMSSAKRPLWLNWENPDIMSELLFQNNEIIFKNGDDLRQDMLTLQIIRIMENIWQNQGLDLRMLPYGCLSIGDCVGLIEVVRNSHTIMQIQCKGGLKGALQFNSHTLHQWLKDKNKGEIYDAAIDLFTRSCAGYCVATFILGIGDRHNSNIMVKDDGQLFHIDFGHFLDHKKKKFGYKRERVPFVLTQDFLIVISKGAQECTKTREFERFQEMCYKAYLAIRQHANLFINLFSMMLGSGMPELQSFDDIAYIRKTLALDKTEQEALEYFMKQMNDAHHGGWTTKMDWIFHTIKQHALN
- Sequence (P27986 whole entry partner): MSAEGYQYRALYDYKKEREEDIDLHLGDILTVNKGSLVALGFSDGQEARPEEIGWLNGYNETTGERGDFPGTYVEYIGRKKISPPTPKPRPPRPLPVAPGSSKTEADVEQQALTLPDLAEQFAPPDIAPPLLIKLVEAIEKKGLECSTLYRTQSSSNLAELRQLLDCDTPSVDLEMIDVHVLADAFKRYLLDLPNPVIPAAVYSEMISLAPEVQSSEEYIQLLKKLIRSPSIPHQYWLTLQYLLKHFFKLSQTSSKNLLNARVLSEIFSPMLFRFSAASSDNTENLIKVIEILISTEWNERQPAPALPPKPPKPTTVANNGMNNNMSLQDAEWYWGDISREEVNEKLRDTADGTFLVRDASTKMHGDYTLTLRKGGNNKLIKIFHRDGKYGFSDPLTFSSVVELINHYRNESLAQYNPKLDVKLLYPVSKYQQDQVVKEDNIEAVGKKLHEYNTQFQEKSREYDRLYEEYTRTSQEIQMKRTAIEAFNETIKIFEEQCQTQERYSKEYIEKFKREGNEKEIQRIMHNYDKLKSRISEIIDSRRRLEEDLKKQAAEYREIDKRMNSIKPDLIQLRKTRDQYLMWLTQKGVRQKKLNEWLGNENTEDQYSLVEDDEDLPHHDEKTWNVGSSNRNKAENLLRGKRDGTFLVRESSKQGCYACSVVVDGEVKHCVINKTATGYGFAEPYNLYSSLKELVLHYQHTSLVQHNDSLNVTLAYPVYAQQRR
- protocol-text: LanthaScreen determination of kinetic constants (kinact, Ki) for p110α
- Format: binding
- test-settings: read-out: kinact PI3Kα
Label t for high-side kinact (at or above 0.005 s⁻¹) and f for low-side kinact (below it).

Example cases with answers are listed next.
- molecule: "C=CC(=O)N1CCC(CCCC(=O)N2CCN(c3nc(-c4cnc(N)nc4C(F)F)nc(N4CCOCC4)n3)CC2)CC1 [Compound 47]"
  label: "f"
- molecule: "C=CC(=O)N1CCC[C@@H](COCC(=O)N2CCN(c3nc(-c4cnc(N)nc4C(F)F)nc(N4CCOC[C@@H]4C)n3)CC2)C1 [Compound 1]"
  label: "f"
- molecule: "N#C/C(=C/C1CC1)C(=O)N1CCC[C@@H](COCC(=O)N2CCN(c3nc(-c4cnc(N)nc4C(F)F)nc(N4CCOCC4)n3)CC2)C1 [Compound 8]"
  label: "t"
- molecule: "C=CC(=O)N1CCC[C@@H](C(=O)N(C)CC(=O)N2CCN(c3nc(-c4cnc(N)nc4C(F)F)nc(N4CCOCC4)n3)CC2)C1 [Compound 18]"
  label: "f"
- molecule: "C=CC(=O)N1CC(C(=O)N(C)CC(=O)N2CCN(c3nc(-c4cnc(N)nc4C(F)F)nc(N4CCOCC4)n3)CC2)C1 [Compound 33]"
  label: "t"

Next, consider the following molecule.
Query :: Say whether C=CC(=O)N1CCC[C@@H](OCCC(=O)N2CCN(c3nc(-c4cnc(N)nc4C(F)F)nc(N4CCOC[C@@H]4C)n3)CC2)C1 [Compound 5] shows kinact of 0.005 s⁻¹ or more.
Result :: t

###

Parameter: pKi. Scope: all listed entries.
- assay-target: p110α (PI3Kα) (Homo sapiens, UniProt P42336)
In textbook form, pKi equals minus log to base ten of the concentration in mol/L.

Some solved cases for reference:
- molecule: "C=CC(=O)N1CCC(CCCC(=O)N2CCN(c3nc(-c4cnc(N)nc4C(F)F)nc(N4CCOCC4)n3)CC2)CC1 [Compound 47]"
  assay-target: "p110α (PI3Kα) (Homo sapiens, UniProt P42336)"
  value-reported: 8.15
- molecule: "C=CC(=O)N1CC[C@@H](C(=O)N(C)CC(=O)N2CCN(c3nc(-c4cnc(N)nc4C(F)F)nc(N4CCOCC4)n3)CC2)C1 [Compound 27]"
  assay-target: "p110α (PI3Kα) (Homo sapiens, UniProt P42336)"
  value-reported: 8.22
- molecule: "C=CC(=O)N1CCC[C@@H](C(=O)N(C)CC(=O)N2CCN(c3nc(-c4cnc(N)nc4C(F)F)nc(N4CCOCC4)n3)CC2)C1 [Compound 18]"
  assay-target: "p110α (PI3Kα) (Homo sapiens, UniProt P42336)"
  value-reported: 8.22

Query :: Which pKi reading was recorded for the molecule C=CC(=O)N1CCCC[C@@H]1C(=O)N(C)CC(=O)N1CCN(c2nc(-c3cnc(N)nc3C(F)F)nc(N3CCOCC3)n2)CC1 [Compound 23] ?
Result :: 8.07

Query :: Which pKi reading was recorded for the molecule C=CC(=O)N1CC(C(=O)NCCC(=O)N2CCN(c3nc(-c4cnc(N)nc4C(F)F)nc(N4CCOCC4)n3)CC2)C1 [Compound 35] ?
Result :: 7.87

Query :: Which pKi reading was recorded for the molecule N#C/C(=C/C1CC1)C(=O)N1CCC[C@@H](COCC(=O)N2CCN(c3nc(-c4cnc(N)nc4C(F)F)nc(N4CCOCC4)n3)CC2)C1 [Compound 8] ?
Result :: 8.56

###

This document collects pKi values reported for p110α (PI3Kα) (Homo sapiens).
In textbook form, pKi equals minus log to base ten of the concentration in mol/L.

Some solved cases for reference:
- compound: "C=CC(=O)N1CCC[C@@H](C(=O)NCCN2CCN(c3nc(-c4cnc(N)nc4C(F)F)nc(N4CCOCC4)n3)CC2)C1 [Compound 19]"
  assay-target: "p110α (PI3Kα) (Homo sapiens)"
  pKi: 7.92
- compound: "C=CC(=O)N1CC(C(=O)N(C)CC(=O)N2CCN(c3nc(-c4cnc(N)nc4C(F)F)nc(N4CCOCC4)n3)CC2)C1 [Compound 33]"
  assay-target: "p110α (PI3Kα) (Homo sapiens)"
  pKi: 8.19

Continue with the compound presented below.
Query :: Checklist item: pKi tested on p110α (PI3Kα) (Homo sapiens), entry C=CC(=O)N1CCCC[C@H]1C(=O)N(C)CC(=O)N1CCN(c2nc(-c3cnc(N)nc3C(F)F)nc(N3CCOCC3)n2)CC1 [Compound 22] , value?
Result :: 8.24

###

Parameter: kinact. Scope: all listed entries.
- assay-target: p110α (PI3Kα) (Homo sapiens)
- protocol-text: LanthaScreen determination of kinetic constants (kinact, Ki) for p110α
- Format: binding
- test-settings: mean of 3 independent measurements; global fitting with KinTek; read-out: kinact PI3Kα
Could you give me the number in s⁻¹? Just the number is fine.

- chem-smiles: "C=CC(=O)N1CCC[C@@H](C(=O)NCCN2CCN(c3nc(-c4cnc(N)nc4C(F)F)nc(N4CCOCC4)n3)CC2)C1"
  assay-target: "p110α (PI3Kα) (Homo sapiens)"
  value-reported: 0.000196
- chem-smiles: "C=CC(=O)N1CCC(COCC(=O)N2CCN(c3nc(-c4cnc(N)nc4C(F)F)nc(N4CCOCC4)n3)CC2)CC1"
  assay-target: "p110α (PI3Kα) (Homo sapiens)"
  value-reported: 0.00102
- chem-smiles: "C=CC(=O)N1CC(C(=O)NCCC(=O)N2CCN(c3nc(-c4cnc(N)nc4C(F)F)nc(N4CCOCC4)n3)CC2)C1"
  assay-target: "p110α (PI3Kα) (Homo sapiens)"
  value-reported: 0.00169

Query :: Which kinact reading was recorded for the compound `C=CC(=O)N1CCC[C@@H]1C(=O)NCC(=O)N1CCN(c2nc(-c3cnc(N)nc3C(F)F)nc(N3CCOCC3)n2)CC1` ?
Result :: 0.000275

###

- assay-target: p110α (PI3Kα) (Homo sapiens, UniProt P42336)
- protocol-text: LanthaScreen determination of kinetic constants (kinact, Ki) for p110α;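 note: covalent inhibition constants for p110α come from LanthaScreen data, fitted globally by numerical integration in KinTek Global Kinetic Explorer software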
- Format: binding
- test-settings: mean of 3 independent measurements; global fitting with KinTek; read-out: kinact PI3Kα
Parameter: log10 of kinact. Scope: all listed entries.
In plain terms, each number is the log10 of measured kinact in s⁻¹.

Some solved cases for reference:
- chem-smiles: "C=CC(=O)N1CCO[C@@H](COCC(=O)N2CCN(c3nc(-c4cnc(N)nc4C(F)F)nc(N4CCOC[C@@H]4C)n3)CC2)C1"
  log10 of kinact: -2.79
- chem-smiles: "C=CC(=O)N1CCC[C@H](C(=O)NCC(=O)N2CCN(c3nc(-c4cnc(N)nc4C(F)F)nc(N4CCOCC4)n3)CC2)C1"
  log10 of kinact: -3.26
- chem-smiles: "C=CC(=O)N1CC[C@H](C(=O)NCC(=O)N2CCN(c3nc(-c4cnc(N)nc4C(F)F)nc(N4CCOCC4)n3)CC2)C1"
  log10 of kinact: -2.59
- chem-smiles: "C=CC(=O)N1CCC[C@H]1C(=O)NCC(=O)N1CCN(c2nc(-c3cnc(N)nc3C(F)F)nc(N3CCOCC3)n2)CC1"
  log10 of kinact: -3.55
- chem-smiles: "C=CC(=O)N1CC[C@@H](C(=O)N(C)CC(=O)N2CCN(c3nc(-c4cnc(N)nc4C(F)F)nc(N4CCOCC4)n3)CC2)C1"
  log10 of kinact: -2.49
- chem-smiles: "C=CC(=O)N1CC[C@@H](COCC(=O)N2CCN(c3nc(-c4cnc(N)nc4C(F)F)nc(N4CCOC[C@@H]4C)n3)CC2)C1"
  log10 of kinact: -2.42
- chem-smiles: "C=CC(=O)N1CC[C@H](COCC(=O)N2CCN(c3nc(-c4cnc(N)nc4C(F)F)nc(N4CCOC[C@@H]4C)n3)CC2)C1"
  log10 of kinact: -3.36
- chem-smiles: "C=CC(=O)N1CCC[C@@H](C(=O)NCC(=O)N2CCN(c3nc(-c4cnc(N)nc4C(F)F)nc(N4CCOCC4)n3)CC2)C1"
  log10 of kinact: -2.45

Query :: Which log10 of kinact reading was recorded for the compound `C=CC(=O)N1CCC[C@H](COCC(=O)N2CCN(c3nc(-c4cnc(N)nc4C(F)F)nc(N4CCOC[C@@H]4C)n3)CC2)C1` ?
Result :: -3.58
